species on record: Rattus norvegicus; test: Open TG-GATES - Regimen: Daily Repeat; format: toxicity, organism-based, Sprague-Dawley; parameters: regimen Daily Repeat, gender Male, age 6 weeks; details: in vivo, po, 1000 mg/kg, […], tissue Blood, route gavage, dose level High, time 7 day
Please respond with reported Plat for every item in the list.
Numbers only, in x10_4/uL.

Hi! Can you tell me Plat for each of these molecules?
1. CCCCNC(=O)NS(=O)(=O)c1ccc(C)cc1 [TOLBUTAMIDE]
2. CC(S)C(=O)NCC(=O)O (centres undefined)
3. CC(=O)[C@@]1(O)CC[C@H]2[C@@H]3C=C(Cl)C4=CC(=O)CC[C@]4(C)[C@H]3CC[C@@]21C
4. O=C(O)c1ccccc1Nc1ccccc1

[out]
1. 112
2. 122.7
3. 127.9
4. 156
